Parameter Agonism Ba/F-LP cells (% of hPRL max activity): see the listing below.
- system_under_test: T1, human prolactin receptor (human, UniProt P16471 25-622)
- T1 sequence (looked up): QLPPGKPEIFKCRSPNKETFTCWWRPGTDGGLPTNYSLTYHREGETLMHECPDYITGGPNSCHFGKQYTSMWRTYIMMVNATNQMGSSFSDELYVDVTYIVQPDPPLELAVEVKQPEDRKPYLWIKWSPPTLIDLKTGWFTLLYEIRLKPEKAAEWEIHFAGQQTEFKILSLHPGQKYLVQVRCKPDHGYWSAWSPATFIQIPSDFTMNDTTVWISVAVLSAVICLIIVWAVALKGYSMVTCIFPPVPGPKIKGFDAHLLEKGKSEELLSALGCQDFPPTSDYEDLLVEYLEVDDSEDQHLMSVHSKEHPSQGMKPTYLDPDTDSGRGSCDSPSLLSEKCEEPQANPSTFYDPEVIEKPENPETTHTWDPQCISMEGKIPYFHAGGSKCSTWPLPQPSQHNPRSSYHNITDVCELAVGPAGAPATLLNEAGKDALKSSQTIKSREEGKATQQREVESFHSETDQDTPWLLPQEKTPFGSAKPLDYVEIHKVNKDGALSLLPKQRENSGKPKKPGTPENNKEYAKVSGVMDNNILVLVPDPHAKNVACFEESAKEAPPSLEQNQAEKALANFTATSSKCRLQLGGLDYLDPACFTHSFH
- assay_explanation: cell-based or functional assay

{"binder": "G129D-hPRL (ligand, human, UniProt P01236 29-227, looked up) LPICPGGAARCQVTLRDLFDRAVVLSHYIHNLSSEMFSEFDKRYTHGRGFITKAINSCHTSSLATPEDKEQAQQMNQKDFLSLIVSILRSWNEPLYHLVTEVRGMQEAPEAILSKAVEIEEQTKRLLEDMELIVSQVHPETKENEIYPVWSGLPSLQMADEESRLSAYYNLLHCLRRDSHKIDNYLKLLKCRIIHNNNC", "measured_result": "23.6 % of hPRL max activity"}

With those in mind, consider the next binder.
Param item = G129P-hPRL (ligand, human, UniProt P01236 29-227, looked up) LPICPGGAARCQVTLRDLFDRAVVLSHYIHNLSSEMFSEFDKRYTHGRGFITKAINSCHTSSLATPEDKEQAQQMNQKDFLSLIVSILRSWNEPLYHLVTEVRGMQEAPEAILSKAVEIEEQTKRLLEPMELIVSQVHPETKENEIYPVWSGLPSLQMADEESRLSAYYNLLHCLRRDSHKIDNYLKLLKCRIIHNNNC ; retrieve measured Agonism Ba/F-LP cells (% of hPRL max activity).
90.4 % of hPRL max activity

Origin of values: patent EP2025683A1
